The reported numbers originate from paper PMC4856416.

# experimentSummary: ITC
# Format: binding, Pyrococcus furiosus
# testParameters: 25 °C, 50 mM Tris pH 7.5, 100 mM NaCl, 5 mM MgCl2; read-out: RAD51-BRC4 / K D/μM
propertyMeasured: Kd (µM)
One number for each entry, in µM.

-- ask Find the recorded Kd belonging to Nc1ncnc2c1ncn2[C@@H]1O[C@H](COP(=O)(O)OP(=O)(O)OP(=O)(O)O)[C@@H](O)[C@H]1O and report it.
-- reply 1
